Hello, the source for this data is ChEMBL document CHEMBL1123394, in case you need it.

Tested on: Mus musculus
Experiment: Toxicity of compound against mice was determined at a concentration of 750 mg/kg
Type: organism-based
Design: dose 750 mg/kg
Details: in vivo
READOUT_LABEL: No. of dead mice
API doc: respond with a numeric literal and nothing else, no unit.

Guide cases for No. of dead mice, answers given:
Sample "Nc1ccn([C@@H]2O[C@H](CO)[C@H](O)[C@H]2O)c(=O)n1" ; No. of dead mice observed: 0

Sample "Nc1nc2c(ncn2[C@@H]2O[C@H](CO)[C@H](O)[C@H]2O)c(=O)[nH]1" ; No. of dead mice observed: 8

Sample "Nc1ncnc2c1ncn2[C@@H]1O[C@H](CO)[C@@H](O)[C@@H]1O" ; No. of dead mice observed: 0

Now examine the next entry.
Sample "Nc1nc2c(ncn2COCCO)c(=O)[nH]1" ; No. of dead mice observed: 1
